Cited source for all entries: ChEMBL document CHEMBL4689842

Test system: Fibroblast
Assay: Multiplex assay against human fibroblast
Assay type: toxicity, cell-based
Conditions: 24 h, 1 µM, compound concentration 1 uM, replicate 2
Examples of compounds with documented Population Normal (%) follow.
Quantity measured: Population Normal (%)

compound=Cc1cc2c(cc1N1C(=O)c3cccc4c(CCCO)ccc(c34)C1=O)n(C)c(=O)n2C system=Fibroblast quantity_measured="Population Normal (%)" assay_result=96
compound="CNC(=O)c1nn(C)c2c1C(C)(C)Cc1cnc(Nc3ccc(N4CCN(C)CC4)cc3)nc1-2 [MILCICLIB]" system=Fibroblast quantity_measured="Population Normal (%)" assay_result=66
compound=c1ccc2oc(-c3csc(C4CCN(Cc5nc6ncccc6[nH]5)CC4)n3)cc2c1 system=Fibroblast quantity_measured="Population Normal (%)" assay_result=60
compound="O=C(O)c1ccc2cc(-c3ccc(O)c(C45CC6CC(CC(C6)C4)C5)c3)ccc2c1 [O-DEMETHYLATED ADAPALENE]" system=Fibroblast quantity_measured="Population Normal (%)" assay_result=93
compound=COc1cc2c(NC3CCN(C(C)C)CC3)nc(N3CCC(F)(F)CC3)nc2cc1OCCCN1CCCC1 system=Fibroblast quantity_measured="Population Normal (%)" assay_result=91
compound=COc1cc2c(Nc3ccc(NC(=O)c4ccccc4)cc3)ncnc2cc1OCCCN1CCOCC1 system=Fibroblast quantity_measured="Population Normal (%)" assay_result=58
compound="CCCn1c(=O)c2[nH]c(C34CC5CC(CC3C5)C4)nc2n(CCC)c1=O [ROLOFYLLINE]" system=Fibroblast quantity_measured="Population Normal (%)" assay_result=94
compound=CCOc1cc(N2CCC(O)CC2)ccc1Nc1ncc2c(n1)N(C1CCCC1)CCC(=O)N2C system=Fibroblast quantity_measured="Population Normal (%)" assay_result=59
compound="CC(C)Oc1ccc(C(=O)N[C@H](CNC(=O)CN(C)C)Cc2ccc(-c3cn4cccc([C@H](C)O)c4n3)cc2)cc1Cl [GSK-923295A]" system=Fibroblast quantity_measured="Population Normal (%)" assay_result=73
compound="CCOc1cc2ncc(C#N)c(Nc3ccc(OCc4cccc(F)c4)c(Cl)c3)c2cc1NC(=O)/C=C/CN(C)C [HKI-357]" system=Fibroblast quantity_measured="Population Normal (%)" assay_result=68
compound=COc1ccc(NS(=O)(=O)c2sc3ccc(Cl)cc3c2C)cc1N1CCNCC1.Cl system=Fibroblast quantity_measured="Population Normal (%)" assay_result=96
compound=Cc1cn(-c2cc(NC(=O)c3ccc4c(c3)CN(c3cncnc3)C[C@@H]4C)cc(C(F)(F)F)c2)cn1 system=Fibroblast quantity_measured="Population Normal (%)" assay_result=71
compound=CNc1oc(-c2cccc3ccccc23)nc1C#N system=Fibroblast quantity_measured="Population Normal (%)" assay_result=93
compound=Cl.Cl.Nc1ncnc2c1c(-c1cccc(OCc3ccccc3)c1)cn2[C@H]1C[C@@H](CN2CCC2)C1 system=Fibroblast quantity_measured="Population Normal (%)" assay_result=93
compound=COc1cc(N2CCC(N(C)C)CC2)ccc1Nc1ncc(Cl)c(Nc2ccccc2P(C)(C)=O)n1 system=Fibroblast quantity_measured="Population Normal (%)" assay_result=67
compound="CN(C)C/C=C/C(=O)Nc1cc2c(Nc3ccc(F)c(Cl)c3)ncnc2cc1O[C@H]1CCOC1.O=C(O)/C=C\\C(=O)O.O=C(O)/C=C\\C(=O)O [AFATINIB DIMALEATE]" system=Fibroblast quantity_measured="Population Normal (%)" assay_result=65
compound="Cc1nc(Cc2cccc(C(F)(F)F)c2)sc1-c1ccc(C(N)=O)nc1 [TP-024n]" system=Fibroblast quantity_measured="Population Normal (%)" assay_result=95

---

System: Fibroblast
Experiment: Multiplex assay against human fibroblast
Assay type: toxicity, cell-based
Settings: 24 h, 1 µM, compound concentration 1 uM, replicate 2
Quantity measured: Population Apoptotic (%)

molecule=COc1ccc(NS(=O)(=O)c2sc3ccc(Cl)cc3c2C)cc1N1CCNCC1.Cl assay_result=33
molecule="CCOc1cc2ncc(C#N)c(Nc3ccc(OCc4cccc(F)c4)c(Cl)c3)c2cc1NC(=O)/C=C/CN(C)C [HKI-357]" assay_result=60
molecule="CCCn1c(=O)c2[nH]c(C34CC5CC(CC3C5)C4)nc2n(CCC)c1=O [ROLOFYLLINE]" assay_result=40
molecule="CCn1c(-c2nonc2N)nc2cnc(Oc3cccc(NC(=O)c4ccc(OCCN5CCOCC5)cc4)c3)cc21 [GSK-269962A]" assay_result=75

---

Test system: HEK-293T
Experiment: Multiplex assay against HEK293T
Assay type: toxicity, cell-based
Details: human, 24 h, 10 µM, compound concentration 10 uM, replicate 1
Param threshold (80%) applies to Population Normal (%); output 1 (yes) when value >= threshold, 0 (no) when value < threshold.

molecular_string=COc1cc2c(NC3CCN(C(C)C)CC3)nc(N3CCC(F)(F)CC3)nc2cc1OCCCN1CCCC1 system=HEK-293T category="0 (no)"
molecular_string=CCOc1cc(N2CCC(O)CC2)ccc1Nc1ncc2c(n1)N(C1CCCC1)CCC(=O)N2C system=HEK-293T category="1 (yes)"
molecular_string=Cc1cn(-c2cc(NC(=O)c3ccc4c(c3)CN(c3cncnc3)C[C@@H]4C)cc(C(F)(F)F)c2)cn1 system=HEK-293T category="1 (yes)"
molecular_string=CC(C)(C)c1cnc(CSc2cnc(NC(=O)C3CCNCC3)s2)o1 system=HEK-293T category="0 (no)"

---

Test system: HEK-293T
Assay: Multiplex assay against HEK293T;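 as to Population Tubulin-Different-Phenotype (%): share of the cells with healthy nuclei that show this phenotype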
Format: toxicity, cell-based
Settings: human, 24 h, 1 µM, compound concentration 1 uM, replicate 2
Quantity measured: Population Tubulin-Different-Phenotype (%)

compound=Cl.Cl.NC1(c2ccc(-c3nc4ccn5c(=O)[nH]nc5c4cc3-c3ccccc3)cc2)CCC1 system=HEK-293T measurement_unit=% assay_result=46
compound="CCn1c(-c2nonc2N)nc2cnc(Oc3cccc(NC(=O)c4ccc(OCCN5CCOCC5)cc4)c3)cc21 [GSK-269962A]" system=HEK-293T measurement_unit=% assay_result=31
compound=c1ccc2oc(-c3csc(C4CCN(Cc5nc6ncccc6[nH]5)CC4)n3)cc2c1 system=HEK-293T measurement_unit=% assay_result=30
compound=CC(C)N1CCC(C)(C)c2cc(C#Cc3ccc(C(=O)O)cc3)ccc21 system=HEK-293T measurement_unit=% assay_result=10
compound=CC(C)(C)c1cnc(CSc2cnc(NC(=O)C3CCNCC3)s2)o1 system=HEK-293T measurement_unit=% assay_result=17
compound=CCCn1c(=O)c2[nH]c(C34CC5CC(CC3C5)C4)nc2n(CCC)c1=O system=HEK-293T measurement_unit=% assay_result=38
compound=COc1ccc(NS(=O)(=O)c2sc3ccc(Cl)cc3c2C)cc1N1CCNCC1.Cl system=HEK-293T measurement_unit=% assay_result=54
compound=COc1cc2c(Nc3ccc(NC(=O)c4ccccc4)cc3)ncnc2cc1OCCCN1CCOCC1 system=HEK-293T measurement_unit=% assay_result=97
compound=CNC(=O)c1cc(Oc2ccc(NC(=O)Nc3cc(C(C)(C)C)nn3-c3ccc4ncccc4c3)c(F)c2)ccn1 system=HEK-293T measurement_unit=% assay_result=7

---

Test system: HEK-293T
Experiment: Multiplex assay against HEK293T
Type: toxicity, cell-based
Settings: human, 24 h, 1 µM, compound concentration 1 uM, replicate 2
Quantity measured: Population Hoechst High Intensity Objects (%)

molecule="CNC(=O)c1nn(C)c2c1C(C)(C)Cc1cnc(Nc3ccc(N4CCN(C)CC4)cc3)nc1-2 [MILCICLIB]" assay_result=9
molecule=Cc1cn(-c2cc(NC(=O)c3ccc4c(c3)CN(c3cncnc3)C[C@@H]4C)cc(C(F)(F)F)c2)cn1 assay_result=2
molecule="CCC(=O)O[C@]1(C(=O)SCF)[C@H](C)C[C@H]2[C@@H]3C[C@H](F)C4=CC(=O)C=C[C@]4(C)[C@@]3(F)[C@@H](O)C[C@@]21C [FLUTICASONE PROPIONATE]" assay_result=1
molecule=Nc1nc2c(c(N3CCNCC3)n1)CCC1=C2[C@@H]2CCCC[C@@H]2O1 assay_result=3

---

Test system: Fibroblast
Experiment: Multiplex assay against human fibroblast
Assay type: toxicity, cell-based
Settings: 12 h, 10 µM, compound concentration 10 uM, replicate 1
Quantity measured: Population Hoechst High Intensity Objects (%)

molecule=Cc1cc2c(cc1N1C(=O)c3cccc4c(CCCO)ccc(c34)C1=O)n(C)c(=O)n2C measurement_unit=% assay_result=12
molecule="Cc1nc(Cc2cccc(C(F)(F)F)c2)sc1-c1ccc(C(N)=O)nc1 [TP-024n]" measurement_unit=% assay_result=14
molecule=CCc1cc2c(cc1CC)CC(NC[C@H](O)c1ccc(O)c3[nH]c(=O)ccc13)C2 measurement_unit=% assay_result=22
molecule="CN(C)C/C=C/C(=O)Nc1cc2c(Nc3ccc(F)c(Cl)c3)ncnc2cc1O[C@H]1CCOC1.O=C(O)/C=C\\C(=O)O.O=C(O)/C=C\\C(=O)O [AFATINIB DIMALEATE]" measurement_unit=% assay_result=24
molecule=COc1ccc(NS(=O)(=O)c2sc3ccc(Cl)cc3c2C)cc1N1CCNCC1.Cl measurement_unit=% assay_result=22
molecule=Nc1nc2c(c(N3CCNCC3)n1)CCC1=C2[C@@H]2CCCC[C@@H]2O1 measurement_unit=% assay_result=42
molecule=CC(=O)c1cc(-c2cc(C(=O)NC3CC3)ccc2C)c2ncccn12 measurement_unit=% assay_result=25
molecule=Cc1cn(-c2cc(NC(=O)c3ccc4c(c3)CN(c3cncnc3)C[C@@H]4C)cc(C(F)(F)F)c2)cn1 measurement_unit=% assay_result=13
molecule=CN(C)CCOc1ccc(-c2nc(-c3ccncc3)c(-c3ccc4c(c3)CC/C4=N\O)[nH]2)cc1 measurement_unit=% assay_result=14
molecule=COc1cc(N2CCC(N(C)C)CC2)ccc1Nc1ncc(Cl)c(Nc2ccccc2P(C)(C)=O)n1 measurement_unit=% assay_result=13
molecule=CNc1oc(-c2cccc3ccccc23)nc1C#N measurement_unit=% assay_result=64
molecule=COc1cc2c(Nc3ccc(NC(=O)c4ccccc4)cc3)ncnc2cc1OCCCN1CCOCC1 measurement_unit=% assay_result=19
molecule=CCCn1c(=O)c2[nH]c(C34CC5CC(CC3C5)C4)nc2n(CCC)c1=O measurement_unit=% assay_result=13
molecule=c1ccc2oc(-c3csc(C4CCN(Cc5nc6ncccc6[nH]5)CC4)n3)cc2c1 measurement_unit=% assay_result=11
molecule=CCN1CCN(Cc2ccc(NC(=O)c3ccc(C)c(Oc4ccnc5[nH]ccc45)c3)cc2C(F)(F)F)CC1.Cl.Cl.Cl.O measurement_unit=% assay_result=20
molecule=Cl.Cl.NC1(c2ccc(-c3nc4ccn5c(=O)[nH]nc5c4cc3-c3ccccc3)cc2)CCC1 measurement_unit=% assay_result=49
molecule=CCOc1cc(N2CCC(O)CC2)ccc1Nc1ncc2c(n1)N(C1CCCC1)CCC(=O)N2C measurement_unit=% assay_result=14
molecule=COc1cc2c(NC3CCN(C(C)C)CC3)nc(N3CCC(F)(F)CC3)nc2cc1OCCCN1CCCC1 measurement_unit=% assay_result=33
molecule=CC(C)N1CCC(C)(C)c2cc(C#Cc3ccc(C(=O)O)cc3)ccc21 measurement_unit=% assay_result=76
molecule="CCC(=O)O[C@]1(C(=O)SCF)[C@H](C)C[C@H]2[C@@H]3C[C@H](F)C4=CC(=O)C=C[C@]4(C)[C@@]3(F)[C@@H](O)C[C@@]21C [FLUTICASONE PROPIONATE]" measurement_unit=% assay_result=16
molecule=CCOc1cc2ncc(C#N)c(Nc3ccc(OCc4cccc(F)c4)c(Cl)c3)c2cc1NC(=O)/C=C/CN(C)C measurement_unit=% assay_result=13
molecule=N#Cc1cnc(Nc2cc(NC[C@H]3CNCCO3)c(C(F)(F)F)cn2)cn1 measurement_unit=% assay_result=12
molecule=CNC(=O)c1cc(Oc2ccc(NC(=O)Nc3cc(C(C)(C)C)nn3-c3ccc4ncccc4c3)c(F)c2)ccn1 measurement_unit=% assay_result=8
molecule="CCn1c(-c2nonc2N)nc2cnc(Oc3cccc(NC(=O)c4ccc(OCCN5CCOCC5)cc4)c3)cc21 [GSK-269962A]" measurement_unit=% assay_result=12
molecule=Cl.Cl.Nc1ncnc2c1c(-c1cccc(OCc3ccccc3)c1)cn2[C@H]1C[C@@H](CN2CCC2)C1 measurement_unit=% assay_result=38
molecule=CC(C)(C)c1cnc(CSc2cnc(NC(=O)C3CCNCC3)s2)o1 measurement_unit=% assay_result=8
molecule=Nc1ccc(C(=O)Nc2cccc(-c3nc(N4CCOCC4)c4oc5ncccc5c4n3)c2)cn1 measurement_unit=% assay_result=41
molecule=O=C(O)c1ccc2cc(-c3ccc(O)c(C45CC6CC(CC(C6)C4)C5)c3)ccc2c1 measurement_unit=% assay_result=16
